- assayComment: Single-dose pharmacokinetics after IV bolus administration of EK-ECP
- Type: in vivo, male Sprague–Dawley rats
- protocolConditions: male, Sprague-Dawley, rat, in vivo, iv, 10 mg/kg, IV bolus 10 mg/kg EK-ECP, mean (CV); read-out: T1/2 (terminal half-life) (converted)
measure: half-life

The compound listed as Oc1cc(O)cc(Oc2c(O)cc(O)c3c2Oc2c(cc(O)c(-c4c(O)cc5c(c4O)Oc4c(Oc6cc(O)cc(O)c6)c(O)cc(O)c4O5)c2O)O3)c1 shows half-life equal to ~9.42 h

---

- assayComment: Single-dose pharmacokinetics after IV bolus administration of EK-ECP
- Assay type: in vivo, male Sprague–Dawley rats
- protocolConditions: male, Sprague-Dawley, rat, in vivo, iv, 10 mg/kg, IV bolus 10 mg/kg EK-ECP, mean (CV); ln(2)·MRTlast; read-out: Effective T1/2 (converted)
measure: half-life (h)
One number for each entry, in h.

The compound listed as Oc1cc(O)cc(Oc2c(O)cc(O)c3c2Oc2c(cc(O)c(-c4c(O)cc5c(c4O)Oc4c(Oc6cc(O)cc(O)c6)c(O)cc(O)c4O5)c2O)O3)c1 shows half-life equal to 1.3
